- system_name: T1, human IL-36R on cells (human, UniProt Q9HB29 20-575)
- T1 construct: whole, on cells; also called full-length human IL-36R on HEK293 transfectants; HEK-IL-36R cells
- T1 sequence (looked up): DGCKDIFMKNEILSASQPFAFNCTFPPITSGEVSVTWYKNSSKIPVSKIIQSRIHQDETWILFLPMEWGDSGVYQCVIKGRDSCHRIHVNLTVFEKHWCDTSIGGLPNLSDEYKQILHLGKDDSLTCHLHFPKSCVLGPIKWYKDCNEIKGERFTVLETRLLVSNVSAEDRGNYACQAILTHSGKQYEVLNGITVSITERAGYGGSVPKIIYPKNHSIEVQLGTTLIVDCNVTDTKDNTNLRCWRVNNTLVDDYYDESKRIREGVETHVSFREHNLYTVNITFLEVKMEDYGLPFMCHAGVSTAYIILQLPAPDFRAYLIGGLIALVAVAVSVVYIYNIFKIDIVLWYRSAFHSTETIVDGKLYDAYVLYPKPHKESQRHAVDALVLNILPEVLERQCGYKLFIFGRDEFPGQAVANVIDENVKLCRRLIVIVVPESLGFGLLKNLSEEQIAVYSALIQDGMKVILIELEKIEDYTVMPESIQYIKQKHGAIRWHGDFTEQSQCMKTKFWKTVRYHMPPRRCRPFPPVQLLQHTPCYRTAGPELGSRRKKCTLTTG
- assay_overview: flow cytometry, HEK293 cells transfected with full-length human IL-36R
EC50: recorded values
Write the answer as a number in nM, unit excluded.

[[record]]
binder = "antibody 81A1 (antibody, V domains shown, Mouse monoclonal from hybridoma; also called 81A1D1; Mouse 81A1) VH: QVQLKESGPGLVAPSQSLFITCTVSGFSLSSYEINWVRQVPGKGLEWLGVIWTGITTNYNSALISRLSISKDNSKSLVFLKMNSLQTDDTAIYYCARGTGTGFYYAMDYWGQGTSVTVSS VL: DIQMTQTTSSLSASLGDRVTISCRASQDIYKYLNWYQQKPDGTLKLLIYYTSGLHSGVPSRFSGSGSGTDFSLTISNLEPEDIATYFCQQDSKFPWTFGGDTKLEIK"
property_label = "EC50"
recorded_value = 0.28


Here is another binder to look at.
Assign EC50 to the following record: antibody 73F6 (antibody, V domains shown, Mouse monoclonal from hybridoma; also called 73F6F8; Mouse 73F6) VH: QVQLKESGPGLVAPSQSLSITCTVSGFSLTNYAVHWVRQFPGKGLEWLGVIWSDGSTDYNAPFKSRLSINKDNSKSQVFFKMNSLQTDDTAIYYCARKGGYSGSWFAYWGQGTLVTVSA VL: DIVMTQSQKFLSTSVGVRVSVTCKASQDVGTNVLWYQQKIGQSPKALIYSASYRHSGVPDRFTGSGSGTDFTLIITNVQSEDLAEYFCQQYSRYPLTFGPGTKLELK
0.746

Where do these numbers come from? They come from patent US20200231684A1.
